target: PD-L1 expressed on MDA-MB-231 cells (UniProt Q9NZQ7 19-290, limits assumed); test: cell-based or functional assay
Sequence (Q9NZQ7 19-290 limits assumed): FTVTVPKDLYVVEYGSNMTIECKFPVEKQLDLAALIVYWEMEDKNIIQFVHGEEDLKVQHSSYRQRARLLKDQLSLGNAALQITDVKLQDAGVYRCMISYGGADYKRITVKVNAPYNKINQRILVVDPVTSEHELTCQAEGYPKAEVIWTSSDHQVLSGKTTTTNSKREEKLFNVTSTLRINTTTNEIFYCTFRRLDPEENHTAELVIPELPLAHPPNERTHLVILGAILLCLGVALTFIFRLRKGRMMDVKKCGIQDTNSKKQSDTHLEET
Bridges are numbered along the chain shown (N, C = ends). Where no end group is shown, it is not given here.
recorded-endpoint: Fold induction (fold)

[[record]]
binder = "IEMSKSQ (not fully specified; also: cyclic, bridge and C-terminus not given here) [Compound 11]"
unit_of_measurement = "fold"
experimental_value = 4.2

[[record]]
binder = "SETSKVF (not fully specified; also: cyclic, bridge and C-terminus not given here) [Compound 7]"
unit_of_measurement = "fold"
experimental_value = 4

[[record]]
binder = "SKTSESF-NH2 (lactam 2-5) [Compound 1]"
unit_of_measurement = "fold"
experimental_value = 4.6

[[record]]
binder = "SNTSESFQ (cyclised between the N-terminal amino group of Ser and the alpha-carboxyl of the C-terminal Glu, which was attached to Rink amide resin through its gamma-carboxyl (gives Gln)) [Compound 14]"
unit_of_measurement = "fold"
experimental_value = 4.2

[[record]]
binder = "SETSKSI (not fully specified; also: cyclic, bridge and C-terminus not given here) [Compound 5]"
unit_of_measurement = "fold"
experimental_value = 3.2


Data provenance: patent US20150125491A1
